# TARGET_OF_ASSAY: Alpha-1A adrenergic receptor (Homo sapiens) (UniProt P35348)
# Sequence (P35348 whole entry): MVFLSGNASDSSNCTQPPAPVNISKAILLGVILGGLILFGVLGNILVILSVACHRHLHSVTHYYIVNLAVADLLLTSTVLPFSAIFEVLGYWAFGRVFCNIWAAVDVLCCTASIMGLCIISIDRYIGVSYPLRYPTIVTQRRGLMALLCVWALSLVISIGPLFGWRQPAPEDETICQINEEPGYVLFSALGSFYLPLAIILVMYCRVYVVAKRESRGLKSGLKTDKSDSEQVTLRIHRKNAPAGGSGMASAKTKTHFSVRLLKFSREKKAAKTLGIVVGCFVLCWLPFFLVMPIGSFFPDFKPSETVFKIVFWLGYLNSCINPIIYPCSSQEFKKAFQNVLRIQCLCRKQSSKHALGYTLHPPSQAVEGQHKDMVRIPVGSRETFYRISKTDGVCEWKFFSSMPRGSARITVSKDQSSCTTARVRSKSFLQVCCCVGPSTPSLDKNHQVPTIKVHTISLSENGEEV
# TEST_DETAILS: Displacement of [3H]-prazosin from human alpha1A adrenoreceptor expressed in enriched membranes at 1 uM incubated for 90 mins by liquid scintillation counting method relative to control
# Type: cell membranes
Decide using inhibition: a value greater than or equal to 70% is satisfied, a smaller one is not satisfied.

INSERT INTO results (compound, class_label) VALUES
  ('CC1OC2(CCN(CCc3cccc(C#N)c3)CC2)CN(c2ccccc2)C1=O (stereo not drawn)', 'satisfied');

*Q* Is inhibition at least 70%? Consider CC1OC2(CCN(CCc3ccccc3)CC2)CN(c2ccccc2Cl)C1=O (stereo not drawn)
*A* satisfied

*Q* State whether the measured inhibition reaches 70%, counting equality as reaching it, for CC1OC2(CCN(CCc3ccccc3)CC2)CN(c2cnccn2)C1=O (stereo not drawn)
*A* not satisfied

*Q* Say whether CC1OC2(CCN(CCc3ccncc3)CC2)CN(c2ccccc2)C1=O (stereo not drawn) shows inhibition of 70% or more.
*A* not satisfied

*Q* For this compound, is measured inhibition 70% or higher? CC1OC2(CCN(CCc3ccccc3)CC2)CN(c2ccccn2)C1=O (stereo not drawn)
*A* not satisfied

*Q* Would you say CC(=O)Nc1cccc(CCN2CCC3(CC2)CN(c2ccccc2)C(=O)C(C)O3)c1 (racemic) shows inhibition at minimum 70%?
*A* satisfied

*Q* Hello, I need to know if CC1OC2(CCN(CCc3ccccc3)CC2)CN(c2ccccc2O)C1=O (stereo not drawn) has measured inhibition not below 70%. Thanks!
*A* not satisfied

*Q* Evaluate O=C1C(COCc2ccccc2)OC2(CCN(CCc3ccccc3)CC2)CN1c1ccccc1 (stereo not drawn) : inhibition at minimum 70%?
*A* satisfied

*Q* Decide: inhibition of "C[C@H]1OC2(CCN(CCc3ccccc3)CC2)CN(c2ccccc2)C1=O" >= 70%?
*A* satisfied

*Q* Has CC1OC2(CCN(CCc3ccccc3)CC2)CN(c2cncc(F)c2)C1=O (stereo not drawn) a recorded inhibition greater than or equal to 70%?
*A* satisfied

*Q* Decide: is the reported value of inhibition for CC1OC2(CCN(CCc3ccc(F)cc3)CC2)CN(c2ccccc2)C1=O (stereo not drawn) equal to or greater than 70%?
*A* satisfied

*Q* // inclusive: inhibition at least 70%? input: CC(C)C1OC2(CCN(CCc3ccccc3)CC2)CN(c2ccccc2)C1=O (stereo not drawn)
*A* not satisfied

*Q* Entry CCC1OC2(CCN(CCc3ccccc3)CC2)CN(c2ccccc2)C1=O (stereo not drawn) : is its inhibition no less than 70%?
*A* satisfied

*Q* Dear colleague, could you confirm whether "O=C1N(c2ccccc2)CC2(CCN(CCc3ccccc3)CC2)OC12CC2" has inhibition at or above 70%?
*A* satisfied

*Q* API: above_or_equal(metric=inhibition, cutoff=70%) for item CC1OC2(CCN(CCc3ccccn3)CC2)CN(c2cnccc2C(F)(F)F)C1=O (stereo not drawn)
*A* not satisfied

*Q* Confirm if inhibition reported for the compound CC1OC2(CCN(CCc3ccccc3)CC2)CN(c2cncc(C(F)(F)F)c2)C1=O (stereo not drawn) is 70% or above.
*A* satisfied

*Q* Does the compound COCC1OC2(CCN(CCc3ccccc3)CC2)CN(c2ccccc2)C1=O (stereo not drawn) have recorded inhibition that is 70% or more?
*A* not satisfied

*Q* Could you verify whether the entry CC1OC2(CCN(CCc3cccnc3)CC2)CN(c2ccccc2)C1=O (stereo not drawn) shows inhibition of no less than 70%?
*A* not satisfied
